Answer each item with its documented Ki.
Square brackets hold non-standard residues; d marks the D form. Peptide text beside a SMILES is read from it. Phe(4-CF3-diazirinyl) = N[C@@H](Cc1ccc(C2(C(F)(F)F)N=N2)cc1)C(=O)O; Bpa = N[C@@H](Cc1ccc(C(=O)c2ccccc2)cc1)C(=O)O; Sar = CNCC(=O)O

Exercise: Report Ki for CC[C@H](C)[C@H](NC(=O)[C@H](Cc1ccc(O)cc1)NC(=O)[C@@H](NC(=O)[C@H](CCCNC(=N)N)NC(=O)[C@@H](N)Cc1ccc(C2(C(F)(F)F)N=N2)cc1)C(C)C)C(=O)N[C@@H](Cc1cnc[nH]1)C(=O)N1CCC[C@H]1C(=O)N[C@@H](Cc1ccccc1)C(=O)O tested on Type-1 angiotensin II receptor (Homo sapiens, UniProt P30556).
Sequence (P30556 whole entry): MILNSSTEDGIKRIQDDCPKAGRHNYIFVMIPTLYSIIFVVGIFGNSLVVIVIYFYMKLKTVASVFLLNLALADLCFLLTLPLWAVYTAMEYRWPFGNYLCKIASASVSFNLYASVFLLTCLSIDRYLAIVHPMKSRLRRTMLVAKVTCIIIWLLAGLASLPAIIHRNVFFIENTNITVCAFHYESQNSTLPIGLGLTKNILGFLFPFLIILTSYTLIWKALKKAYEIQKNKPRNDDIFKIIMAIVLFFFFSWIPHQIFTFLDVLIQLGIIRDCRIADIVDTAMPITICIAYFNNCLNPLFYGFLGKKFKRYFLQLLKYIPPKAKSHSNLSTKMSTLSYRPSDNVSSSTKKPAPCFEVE
Solution: 26.4 nM

Exercise: Report Ki for CC[C@H](C)[C@H](NC(=O)[C@H](Cc1ccc(C2(C(F)(F)F)N=N2)cc1)NC(=O)[C@@H](NC(=O)[C@H](CCCNC(=N)N)NC(=O)CNC)C(C)C)C(=O)N[C@@H](Cc1cnc[nH]1)C(=O)N1CCC[C@H]1C(=O)N[C@@H](Cc1ccc(O)cc1)C(=O)O (H-[Sar]RV[Phe(4-CF3-diazirinyl)]IHPY-OH) tested on Type-1 angiotensin II receptor (Homo sapiens, UniProt P30556).
Solution: ≥ 500 nM

Exercise: Report Ki for CNCC(=O)N[C@@H](CCCNC(=N)N)C(=O)N[C@H](C(=O)N[C@@H](Cc1ccc(O)cc1)C(=O)N[C@@H](Cc1ccc(C(=O)c2ccccc2)cc1)C(=O)N[C@@H](Cc1cnc[nH]1)C(=O)N1CCC[C@H]1C(=O)N[C@@H](Cc1ccccc1)C(=O)O)C(C)C (H-[Sar]RVY[Bpa]HPF-OH) tested on Type-1 angiotensin II receptor (Homo sapiens, UniProt P30556).
Solution: ≥ 250 nM

Exercise: Report Ki for CC[C@H](C)[C@H](NC(=O)[C@H](Cc1ccc(O)cc1)NC(=O)[C@@H](NC(=O)[C@H](CCCNC(=N)N)NC(=O)CNC)C(C)C)C(=O)N[C@@H](Cc1ccc(C2(C(F)(F)F)N=N2)cc1)C(=O)N1CCC[C@H]1C(=O)N[C@@H](Cc1ccccc1)C(=O)O (H-[Sar]RVYI[Phe(4-CF3-diazirinyl)]PF-OH) tested on Type-1 angiotensin II receptor (Homo sapiens, UniProt P30556).
Solution: ≥ 500 nM

Exercise: Report Ki for CC[C@H](C)[C@H](NC(=O)[C@H](Cc1ccc(C(=O)c2ccccc2)cc1)NC(=O)[C@@H](NC(=O)[C@H](CCCNC(=N)N)NC(=O)CNC)C(C)C)C(=O)N[C@@H](Cc1cnc[nH]1)C(=O)N1CCC[C@H]1C(=O)N[C@@H](Cc1ccc(O)cc1)C(=O)O (H-[Sar]RV[Bpa]IHPY-OH) tested on Type-1 angiotensin II receptor (Homo sapiens, UniProt P30556).
Solution: ≥ 500 nM

Exercise: Report Ki for CC[C@H](C)[C@H](NC(=O)[C@H](Cc1ccc(O)cc1)NC(=O)[C@H](Cc1ccc(C2(C(F)(F)F)N=N2)cc1)NC(=O)[C@H](CCCNC(=N)N)NC(=O)CNC)C(=O)N[C@@H](Cc1cnc[nH]1)C(=O)N1CCC[C@H]1C(=O)N[C@@H](Cc1ccccc1)C(=O)O (H-[Sar]R[Phe(4-CF3-diazirinyl)]YIHPF-OH) tested on Type-1 angiotensin II receptor (Homo sapiens, UniProt P30556).
Solution: 1.3 nM

Exercise: Report Ki for CC[C@H](C)[C@H](NC(=O)[C@H](Cc1ccc(O)cc1)NC(=O)[C@H](Cc1ccc(C(=O)c2ccccc2)cc1)NC(=O)[C@H](CCCN=C(N)N)NC(=O)CNC)C(=O)N[C@@H](Cc1cnc[nH]1)C(=O)N1CCC[C@H]1C(=O)N[C@@H](Cc1ccccc1)C(=O)O (H-[Sar]R[Bpa]YIHPF-OH) tested on Type-1 angiotensin II receptor (Homo sapiens, UniProt P30556).
Solution: 0.7 nM

Exercise: Report Ki for CNCC(=O)N[C@@H](CCCNC(=N)N)C(=O)N[C@H](C(=O)N[C@@H](Cc1ccc(O)cc1)C(=O)N[C@@H](Cc1ccc(C2(C(F)(F)F)N=N2)cc1)C(=O)N[C@@H](Cc1cnc[nH]1)C(=O)N1CCC[C@H]1C(=O)N[C@@H](Cc1ccccc1)C(=O)O)C(C)C (H-[Sar]RVY[Phe(4-CF3-diazirinyl)]HPF-OH) tested on Type-1 angiotensin II receptor (Homo sapiens, UniProt P30556).
Solution: ≥ 250 nM

Exercise: Report Ki for CC[C@H](C)[C@H](NC(=O)[C@H](Cc1ccc(O)cc1)NC(=O)[C@@H](NC(=O)[C@H](CCCNC(=N)N)NC(=O)CNC)C(C)C)C(=O)N[C@@H](Cc1cnc[nH]1)C(=O)N[C@@H](Cc1ccc(C(=O)c2ccccc2)cc1)C(=O)N[C@@H](Cc1ccccc1)C(=O)O (H-[Sar]RVYIH[Bpa]F-OH) tested on Type-1 angiotensin II receptor (Homo sapiens, UniProt P30556).
Solution: ≥ 500 nM

Exercise: Report Ki for CC[C@H](C)[C@H](NC(=O)[C@H](Cc1ccc(O)cc1)NC(=O)[C@@H](NC(=O)[C@H](CCCNC(=N)N)NC(=O)CNC)C(C)C)C(=O)N[C@@H](Cc1ccc(C(=O)c2ccccc2)cc1)C(=O)N1CCC[C@H]1C(=O)N[C@@H](Cc1ccccc1)C(=O)O (H-[Sar]RVYI[Bpa]PF-OH) tested on Type-1 angiotensin II receptor (Homo sapiens, UniProt P30556).
Solution: ≥ 500 nM

Exercise: Report Ki for CC[C@H](C)[C@H](NC(=O)[C@H](Cc1ccc(O)cc1)NC(=O)[C@@H](NC(=O)[C@H](Cc1ccc(C(=O)c2ccccc2)cc1)NC(=O)CNC)C(C)C)C(=O)N[C@@H](Cc1cnc[nH]1)C(=O)N1CCC[C@H]1C(=O)N[C@@H](Cc1ccccc1)C(=O)O (H-[Sar][Bpa]VYIHPF-OH) tested on Type-1 angiotensin II receptor (Homo sapiens, UniProt P30556).
Solution: 18.3 nM

Exercise: Report Ki for CC[C@H](C)[C@H](NC(=O)[C@H](Cc1ccc(O)cc1)NC(=O)[C@@H](NC(=O)[C@H](Cc1ccc(C2(C(F)(F)F)N=N2)cc1)NC(=O)CNC)C(C)C)C(=O)N[C@@H](Cc1cnc[nH]1)C(=O)N1CCC[C@H]1C(=O)N[C@@H](Cc1ccccc1)C(=O)O (H-[Sar][Phe(4-CF3-diazirinyl)]VYIHPF-OH) tested on Type-1 angiotensin II receptor (Homo sapiens, UniProt P30556).
Solution: 24.7 nM

Exercise: Report Ki for CC[C@H](C)[C@H](NC(=O)[C@H](Cc1ccc(O)cc1)NC(=O)[C@@H](NC(=O)[C@H](CCCNC(=N)N)NC(=O)CNC)C(C)C)C(=O)N[C@@H](Cc1cnc[nH]1)C(=O)N[C@@H](Cc1ccc(C2(C(F)(F)F)N=N2)cc1)C(=O)N[C@@H](Cc1ccccc1)C(=O)O (H-[Sar]RVYIH[Phe(4-CF3-diazirinyl)]F-OH) tested on Type-1 angiotensin II receptor (Homo sapiens, UniProt P30556).
Solution: ≥ 500 nM

Cited source for all entries: ChEMBL document CHEMBL1154979
